biological target: Frizzled1-GFP (Homo sapiens, UniProt Q9UP38); construct: expressed in transfected cells; assay: Frizzled internalization assay (Fzd1-GFP); assay type: cell-based; parameters: key: Punctate similar to control=0; trace amount of punctate greater than control=1; moderate=3; strong=5; conditions: 6 hours, 0-5 point scale
Sequence (Q9UP38 70-647): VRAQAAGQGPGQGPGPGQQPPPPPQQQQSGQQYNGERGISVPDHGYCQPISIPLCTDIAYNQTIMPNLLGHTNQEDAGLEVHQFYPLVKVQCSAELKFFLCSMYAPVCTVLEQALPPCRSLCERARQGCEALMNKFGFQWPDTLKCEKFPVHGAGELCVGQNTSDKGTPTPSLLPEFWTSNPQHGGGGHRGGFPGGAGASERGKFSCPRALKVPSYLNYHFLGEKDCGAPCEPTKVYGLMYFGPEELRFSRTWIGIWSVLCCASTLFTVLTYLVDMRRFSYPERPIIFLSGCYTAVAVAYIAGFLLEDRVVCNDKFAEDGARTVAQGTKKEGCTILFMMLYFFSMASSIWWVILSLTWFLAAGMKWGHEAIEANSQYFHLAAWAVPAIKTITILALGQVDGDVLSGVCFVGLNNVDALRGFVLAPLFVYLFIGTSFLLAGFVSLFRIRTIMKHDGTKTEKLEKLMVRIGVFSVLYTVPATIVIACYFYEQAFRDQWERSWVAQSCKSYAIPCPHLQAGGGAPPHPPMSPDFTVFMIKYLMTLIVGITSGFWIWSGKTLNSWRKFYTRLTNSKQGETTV
measurement_name: Fzd1-GFP internalization @12.5 μM

(A) O=C(Nc1ccc(F)cc1Cl)c1cc(Cl)ccc1O [Compound 22]
(B) CC(=O)c1ccc(NC(=O)c2cc(Cl)ccc2O)cc1 [Compound 3]
(C) O=C(Nc1ccc(Cl)cc1Cl)c1cc(Cl)ccc1O [Compound 14]
**Query** Sort the items above on Fzd1-GFP internalization @12.5 μM, descending. Give your ranking as a list of the labels in the requested order.
**Result** C, A, B

(P) O=C(Nc1ccccc1)c1cc(Cl)ccc1O [Compound 1, 5-chloro-2-hydroxy-N-phenylbenzamide]
(Q) O=c1oc2ccc(Cl)cc2c(=O)n1-c1ccc(C(F)(F)F)cc1Cl [Compound 73]
**Query** Which has the smaller recorded Fzd1-GFP internalization @12.5 μM, P or Q ? Label of pick, please.
**Result** P
(P: 0, Q: 5)

(P) O=C(Nc1c(Cl)cccc1Cl)c1cc(Cl)ccc1O [Compound 18]
(Q) O=C(Nc1cc(Cl)ccc1Cl)c1cc(Cl)ccc1O [Compound 15]
**Query** Just curious, which one has the larger Fzd1-GFP internalization @12.5 μM reading, P or Q ? Label of pick, please.
**Result** Q
(Q: 5, P: 0)
